assayed-target: recombinant human GR (Homo sapiens, UniProt P04150)
assay-overview: Human Glucocorticoid Receptor (GR) Assay (fluorescence polarization, Panvera/Invitrogen kit)
particulars: GS Red tracer, 2 hours at room temperature, 100% control 10 μM Dexamethasone, read-out: Inhibition of GR binding, IC50
pIC50: −log10 of the molar value.
readout: pIC50

GET /value?item= CCC[C@H]1O[C@@H]2C[C@H]3[C@@H]4CCC5=Cc6c(cnn6-c6ccc(F)c(CN7CCSCC7)c6)C[C@]5(C)[C@H]4[C@@H](O)C[C@]3(C)[C@]2(C(=O)CO)O1 &field=pIC50 returns 7.80

GET /value?item= CCC[C@@H]1O[C@@H]2C[C@H]3[C@@H]4CCC5=Cc6c(cnn6-c6ccc(F)c(C(=O)OC)c6)C[C@]5(C)[C@H]4[C@@H](O)C[C@]3(C)[C@]2(C(=O)CO)O1 &field=pIC50 returns 8.23

GET /value?item= CCC[C@H]1O[C@@H]2C[C@H]3[C@@H]4CCC5=Cc6c(cnn6-c6ccc(F)c(CNCCCO)c6)C[C@]5(C)[C@H]4[C@@H](O)C[C@]3(C)[C@]2(C(=O)CO)O1 &field=pIC50 returns 7.12

A = CCC[C@H]1O[C@@H]2C[C@H]3[C@@H]4CCC5=Cc6c(cnn6-c6ccc(F)c(CN7CCC(CO)CC7)c6)C[C@]5(C)[C@H]4[C@@H](O)C[C@]3(C)[C@]2(C(=O)CO)O1
B = CC1(C)O[C@@H]2C[C@H]3[C@@H]4C=CC5=Cc6c(cnn6-c6ccc(F)cc6)C[C@]5(C)[C@H]4[C@@H](O)C[C@]3(C)[C@]2(C(=O)CO)O1
Incoming: Sorting by pIC50 in descending order, would A or B appear first? Identify your selection by its label.
Outgoing: B
(B: 8.42, A: 7.33)

----------
assayed-target: recombinant human GR (Homo sapiens)
Construct: purchased Panvera/Invitrogen P2812 (kit P2893)
assay-overview: Human Glucocorticoid Receptor (GR) Assay (fluorescence polarization, Panvera/Invitrogen kit)
particulars: GS Red tracer, 2 hours at room temperature, 100% control 10 μM Dexamethasone, read-out: Inhibition of GR binding, IC50
pIC50: −log10 of the molar value.
readout: pIC50

GET /value?item= CCC[C@H]1O[C@@H]2C[C@H]3[C@@H]4CCC5=Cc6c(cnn6-c6ccc(F)cc6)C[C@]5(C)[C@H]4[C@@H](O)C[C@]3(C)[C@]2(C(=O)CO)O1 &field=pIC50 returns 8.57

I = CC1(C)O[C@@H]2C[C@H]3[C@@H]4CCC5=Cc6c(cnn6-c6ccc(F)cc6)C[C@]5(C)[C@H]4[C@@H](O)C[C@]3(C)[C@]2(C(=O)CO)O1
II = CCC[C@@H]1O[C@@H]2C[C@H]3[C@@H]4CCC5=Cc6c(cnn6-c6ccc(F)c(CNCCO)c6)C[C@]5(C)[C@H]4[C@@H](O)C[C@]3(C)[C@]2(C(=O)CO)O1
Incoming: Sorting by pIC50 in descending order, would I or II appear first? Identify your selection by its label.
Outgoing: I
(I: 8.89, II: 7.38)

----------
assayed-target: recombinant human GR (Homo sapiens, UniProt P04150)
Sequence (P04150 1-777): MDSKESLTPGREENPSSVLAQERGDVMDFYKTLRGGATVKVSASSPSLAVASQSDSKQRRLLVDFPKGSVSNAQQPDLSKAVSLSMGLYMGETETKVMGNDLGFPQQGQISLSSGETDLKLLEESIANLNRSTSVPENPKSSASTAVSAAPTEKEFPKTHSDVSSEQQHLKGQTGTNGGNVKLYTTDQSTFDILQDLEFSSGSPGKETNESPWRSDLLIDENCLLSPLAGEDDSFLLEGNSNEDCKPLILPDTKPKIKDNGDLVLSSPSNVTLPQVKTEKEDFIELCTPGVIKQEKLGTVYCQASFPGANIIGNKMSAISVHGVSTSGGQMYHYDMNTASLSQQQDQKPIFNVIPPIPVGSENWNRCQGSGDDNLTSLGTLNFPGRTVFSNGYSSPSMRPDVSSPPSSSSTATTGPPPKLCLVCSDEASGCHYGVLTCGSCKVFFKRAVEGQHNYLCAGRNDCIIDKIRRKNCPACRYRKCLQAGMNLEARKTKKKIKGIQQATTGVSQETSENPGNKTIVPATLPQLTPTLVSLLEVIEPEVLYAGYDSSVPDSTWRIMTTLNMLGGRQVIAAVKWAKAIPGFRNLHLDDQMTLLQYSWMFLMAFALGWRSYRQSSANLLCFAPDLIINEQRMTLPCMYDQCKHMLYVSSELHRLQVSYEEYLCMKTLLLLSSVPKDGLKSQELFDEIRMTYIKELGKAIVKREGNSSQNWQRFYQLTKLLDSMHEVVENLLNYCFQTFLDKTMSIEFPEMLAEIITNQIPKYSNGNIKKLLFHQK
assay-overview: Human Glucocorticoid Receptor (GR) Assay (fluorescence polarization, Panvera/Invitrogen kit)
particulars: GS Red tracer, 2 hours at room temperature, 100% control 10 μM Dexamethasone, read-out: Inhibition of GR binding, IC50
pIC50: −log10 of the molar value.
readout: pIC50

Solved entries (count: 3):
GET /value?item= CCC[C@@H]1O[C@@H]2C[C@H]3[C@@H]4CCC5=Cc6c(cnn6-c6ccc(F)c(CN7CCC(CO)CC7)c6)C[C@]5(C)[C@H]4[C@@H](O)C[C@]3(C)[C@]2(C(=O)CO)O1 &field=pIC50 returns 7.49

GET /value?item= CCC[C@@H]1O[C@@H]2C[C@H]3[C@@H]4CCC5=Cc6c(cnn6-c6ccc(F)cc6)C[C@]5(C)[C@H]4[C@@H](O)C[C@]3(C)[C@]2(C(=O)SCC#N)O1 &field=pIC50 returns 7.92

GET /value?item= CCC[C@H]1O[C@@H]2C[C@H]3[C@@H]4CCC5=Cc6c(cnn6-c6ccc(F)c(CN7CCC(O)CC7)c6)C[C@]5(C)[C@H]4[C@@H](O)C[C@]3(C)[C@]2(C(=O)CO)O1 &field=pIC50 returns 7.17

A = CCC[C@H]1O[C@@H]2C[C@H]3[C@@H]4CCC5=Cc6c(cnn6-c6ccc(F)c(CN7CCOCC7)c6)C[C@]5(C)[C@H]4[C@@H](O)C[C@]3(C)[C@]2(C(=O)CO)O1
B = CCC[C@@H]1O[C@@H]2C[C@H]3[C@@H]4CCC5=Cc6c(cnn6-c6ccc(F)c(CN7CCN(C)CC7)c6)C[C@]5(C)[C@H]4[C@@H](O)C[C@]3(C)[C@]2(C(=O)CO)O1
C = CCC[C@@H]1OC2C[C@H]3[C@@H]4CCC5=Cc6c(cnn6-c6ccc(F)c(CN(CC)CC)c6)C[C@]5(C)[C@H]4[C@@H](O)C[C@]3(C)[C@]2(C(=O)CO)O1 (stereo partly drawn)
Incoming: Highest pIC50 first, then in falling order down to the smallest. Note for the reader: the ranking is given by listing the labels in the order requested.
Outgoing: A, B, C

a = CCC[C@@H]1O[C@@H]2C[C@H]3[C@@H]4CCC5=Cc6c(cnn6-c6ccc(F)c(CN7CCC(O)CC7)c6)C[C@]5(C)[C@H]4[C@@H](O)C[C@]3(C)[C@]2(C(=O)CO)O1
b = CCC[C@H]1O[C@@H]2C[C@H]3[C@@H]4CCC5=Cc6c(cnn6-c6ccc(F)c(C(=O)OC)c6)C[C@]5(C)[C@H]4[C@@H](O)C[C@]3(C)[C@]2(C(=O)CO)O1
Incoming: Pick one, a or b : lowest reported pIC50. Identify your selection by its label.
Outgoing: a
